# TARGET_UNDER_TEST: hMeprin β (Homo sapiens, UniProt Q16820)
# MEASUREMENT_NOTES: Enzymatic assay, quenched peptide substrate cleavage, method A
# Assay type: biochemical
# APPLIED_CONDITIONS: geometric mean (geometric SD factor in parentheses), read-out: Meprin beta IC50
# Procedure: The determination of enzymatic activity was based on the cleavage of internally quenched peptide substrates. A typical assay of 250 μl total volume measured in black 96 well plates consisted of 100 μl buffer, 50 μl enzyme at a final concentration of 5e-8 M to 2e-10 M, 50 μl substrate (0.15 to 80 μM, in buffer, 0.5% DMSO) and 50 μl inhibitor solution (in buffer, 1% DMSO). […] Based on method B Ki^(app) values were determined using Morrison's equation. […]
READOUT_TYPE: IC50 (nM)

INSERT INTO results (structure, readout_type, unit_spec, measured_result) VALUES
  ('O=C(Cc1c(-c2ccc(Cl)c(O)c2F)nc2ccccn12)NO', 'IC50', 'nM', 23),
  ('O=C(Cc1c(-c2ccccc2)nn(Cc2ccccc2)c1-c1ccccc1)NO', 'IC50', 'nM', 254),
  ('O=C(Cc1c(-c2ccccc2)nn(-c2ccccc2)c1-c1ccccc1)NO', 'IC50', 'nM', 2380),
  ('O=C(CNc1c(-c2ccc(C(=O)O)cc2)nc2ccccn12)NO', 'IC50', 'nM', 176),
  ('O=C(Cc1c(-c2ccccc2)nn(-c2ccc(C(=O)O)cc2)c1-c1ccccc1)NO', 'IC50', 'nM', 154);

###

# TARGET_UNDER_TEST: UniProt Q16820
# Sequence (Q16820 62-701): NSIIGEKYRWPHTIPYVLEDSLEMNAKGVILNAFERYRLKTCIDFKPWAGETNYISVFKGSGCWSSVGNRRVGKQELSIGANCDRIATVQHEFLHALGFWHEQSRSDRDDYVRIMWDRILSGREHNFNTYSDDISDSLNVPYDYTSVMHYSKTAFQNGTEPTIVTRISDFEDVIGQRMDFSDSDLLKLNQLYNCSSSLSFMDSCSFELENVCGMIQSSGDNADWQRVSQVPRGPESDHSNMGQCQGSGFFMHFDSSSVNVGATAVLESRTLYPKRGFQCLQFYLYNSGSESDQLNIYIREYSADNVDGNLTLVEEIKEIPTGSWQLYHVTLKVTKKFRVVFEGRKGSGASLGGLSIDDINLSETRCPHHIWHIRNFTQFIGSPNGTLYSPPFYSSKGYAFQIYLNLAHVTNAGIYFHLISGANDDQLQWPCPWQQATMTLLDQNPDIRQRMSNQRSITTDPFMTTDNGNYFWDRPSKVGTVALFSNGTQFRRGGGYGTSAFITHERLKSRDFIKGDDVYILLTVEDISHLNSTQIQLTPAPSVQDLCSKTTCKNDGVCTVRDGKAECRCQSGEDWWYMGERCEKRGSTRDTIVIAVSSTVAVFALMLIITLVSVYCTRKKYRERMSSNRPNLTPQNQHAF
# MEASUREMENT_NOTES: Enzymatic assay, quenched peptide substrate cleavage, method A
# Type: biochemical
# APPLIED_CONDITIONS: geometric mean (geometric SD factor in parentheses), read-out: Meprin beta IC50
READOUT_TYPE: IC50 (µM)

INSERT INTO measurements (structure, measured_result) VALUES
  ('O=C(CNc1c(-c2ccccc2)nc2c(C(=O)O)cccn12)NO', 3.1),
  ('O=C(CCn1c(-c2ccccc2)ccc1-c1ccccc1)NO', 15),
  ('O=C(CNc1c(-c2cccc(C(=O)O)c2)nc2ccccn12)NO', 0.214),
  ('O=C(CCn1c(-c2ccccc2)nc2ccccc21)NO', 28),
  ('O=C(Cn1c(-c2ccccc2)nc2ccccc21)NO', 1.63);

###

# TARGET_UNDER_TEST: hMMP 2 (Homo sapiens, UniProt P08253)
# Construct: purchased Abnova
# Sequence (P08253 110-660): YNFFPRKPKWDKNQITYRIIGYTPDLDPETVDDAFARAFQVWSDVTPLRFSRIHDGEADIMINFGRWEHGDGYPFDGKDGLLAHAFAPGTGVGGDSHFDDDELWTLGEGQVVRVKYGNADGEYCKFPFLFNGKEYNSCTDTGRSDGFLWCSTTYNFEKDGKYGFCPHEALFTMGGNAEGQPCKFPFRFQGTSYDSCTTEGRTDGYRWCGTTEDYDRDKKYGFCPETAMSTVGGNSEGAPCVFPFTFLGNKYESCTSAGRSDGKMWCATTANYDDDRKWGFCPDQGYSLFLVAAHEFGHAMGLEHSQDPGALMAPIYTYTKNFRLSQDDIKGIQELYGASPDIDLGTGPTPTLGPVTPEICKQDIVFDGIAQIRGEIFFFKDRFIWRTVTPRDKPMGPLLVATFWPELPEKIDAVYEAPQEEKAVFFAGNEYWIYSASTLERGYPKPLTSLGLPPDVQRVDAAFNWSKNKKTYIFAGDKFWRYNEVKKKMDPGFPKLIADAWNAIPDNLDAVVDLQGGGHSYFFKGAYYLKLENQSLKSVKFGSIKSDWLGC
# MEASUREMENT_NOTES: Residual enzyme activity of other metalloproteases
# Format: biochemical
# APPLIED_CONDITIONS: 200 μM inhibitor; read-out: Residual enzyme activity MMP2
READOUT_TYPE: remaining activity at 200 µM

INSERT INTO assay_data (structure, measured_result) VALUES
  ('O=C(Cc1c(-c2cc(F)c(O)c(Cl)c2)n[nH]c1-c1ccccc1)NO', '17%'),
  ('O=C(CCc1c(-c2ccccc2)n[nH]c1-c1ccccc1)NO', '77%'),
  ('O=C(Cc1c(-c2ccccc2)nn(Cc2ccc(C(=O)O)cc2)c1-c1ccccc1)NO', '24%'),
  ('O=C(Cc1c(-c2ccc3c(c2)OCO3)n[nH]c1-c1ccccc1)NO', '8%'),
  ('O=C(Cc1c(-c2ccccc2)noc1-c1ccccc1)NO', '34%'),
  ('O=C(Cc1c(-c2cccc(C(=O)O)c2)n[nH]c1-c1ccc(Cl)c(O)c1F)NO', '81%'),
  ('O=C(Cc1c(-c2ccccc2)n[nH]c1-c1ccccc1)NO', '61%'),
  ('COc1ccc(-c2n[nH]c(-c3ccccc3)c2CC(=O)NO)cc1OC', '26%'),
  ('O=C(Cn1c(-c2ccccc2)nc2ccccc21)NO', '46%'),
  ('O=C(Cc1c(-c2ccccc2)nn(Cc2cccc(C(=O)O)c2)c1-c1ccccc1)NO', '34%'),
  ('O=C(CCc1c(-c2ccccc2)noc1-c1ccccc1)NO', '74%'),
  ('O=C(Cc1c(-c2ccccc2)nn(Cc2ccc3c(c2)OCO3)c1-c1ccccc1)NO', '60%'),
  ('O=C(Cc1c(-c2ccccc2)nn(Cc2ccc(Cl)c(O)c2F)c1-c1ccccc1)NO', '18%'),
  ('O=C(Cn1c(-c2ccccc2)nnc1-c1ccccc1)NO', '70%'),
  ('COc1cccc(-c2n[nH]c(-c3ccccc3)c2CC(=O)NO)c1', '17%'),
  ('O=C(Cn1c(-c2ccccc2)cc2ccccc21)NO', '41%'),
  ('O=C(Cn1c(-c2ccccc2)ccc1-c1ccccc1)NO', '1%');

###

# TARGET_UNDER_TEST: hMeprin α (Homo sapiens)
# Sequence (Q16819 66-746): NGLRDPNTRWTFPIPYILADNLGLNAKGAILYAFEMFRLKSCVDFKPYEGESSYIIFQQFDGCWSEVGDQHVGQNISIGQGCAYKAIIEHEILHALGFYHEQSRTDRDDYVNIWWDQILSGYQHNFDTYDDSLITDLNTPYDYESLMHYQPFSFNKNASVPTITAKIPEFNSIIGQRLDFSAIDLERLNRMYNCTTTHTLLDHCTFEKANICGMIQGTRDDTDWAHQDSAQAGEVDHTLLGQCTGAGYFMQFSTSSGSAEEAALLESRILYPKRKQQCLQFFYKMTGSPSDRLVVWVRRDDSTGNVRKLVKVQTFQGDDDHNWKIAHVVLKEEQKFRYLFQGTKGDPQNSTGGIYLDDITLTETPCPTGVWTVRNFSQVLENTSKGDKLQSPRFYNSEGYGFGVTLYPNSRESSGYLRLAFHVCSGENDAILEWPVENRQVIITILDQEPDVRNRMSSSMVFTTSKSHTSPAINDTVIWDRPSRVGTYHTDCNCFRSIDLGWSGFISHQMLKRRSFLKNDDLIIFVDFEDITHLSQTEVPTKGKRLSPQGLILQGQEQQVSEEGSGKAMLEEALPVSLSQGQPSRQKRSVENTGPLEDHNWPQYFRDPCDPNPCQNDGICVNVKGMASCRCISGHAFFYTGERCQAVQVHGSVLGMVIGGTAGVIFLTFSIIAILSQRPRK
# MEASUREMENT_NOTES: Enzymatic assay, quenched peptide substrate cleavage, method A
# Type: biochemical
# APPLIED_CONDITIONS: geometric mean (geometric SD factor in parentheses), read-out: Meprin alpha IC50
pIC50: −log10 of the molar value.
Give condition met when the value for pIC50 is at least 7. Give condition not met when it is less.

INSERT INTO measurements (structure, target_under_test, label) VALUES
  ('O=C(CCn1c(-c2ccccc2)cc2ccccc21)NO', 'hMeprin α (Homo sapiens)', 'condition not met'),
  ('O=C(Cc1c(-c2ccccc2)nnn1-c1ccccc1)NO', 'hMeprin α (Homo sapiens)', 'condition met'),
  ('O=C(CCn1nc(-c2ccccc2)cc1-c1ccccc1)NO', 'hMeprin α (Homo sapiens)', 'condition not met'),
  ('O=C(CCc1c(-c2ccccc2)noc1-c1ccccc1)NO', 'hMeprin α (Homo sapiens)', 'condition met'),
  ('O=C(CNc1c(-c2ccc3c(c2)OCCO3)nc2ccccn12)NO', 'hMeprin α (Homo sapiens)', 'condition not met'),
  ('O=C(Cn1nc(-c2ccccc2)cc1-c1ccccc1)NO', 'hMeprin α (Homo sapiens)', 'condition not met'),
  ('O=C(CCn1c(-c2ccccc2)ccc1-c1ccccc1)NO', 'hMeprin α (Homo sapiens)', 'condition not met');

###

# TARGET_UNDER_TEST: hADAM 17 (Homo sapiens, UniProt P78536)
# Construct: purchased R&D systems
# Sequence (P78536 215-824): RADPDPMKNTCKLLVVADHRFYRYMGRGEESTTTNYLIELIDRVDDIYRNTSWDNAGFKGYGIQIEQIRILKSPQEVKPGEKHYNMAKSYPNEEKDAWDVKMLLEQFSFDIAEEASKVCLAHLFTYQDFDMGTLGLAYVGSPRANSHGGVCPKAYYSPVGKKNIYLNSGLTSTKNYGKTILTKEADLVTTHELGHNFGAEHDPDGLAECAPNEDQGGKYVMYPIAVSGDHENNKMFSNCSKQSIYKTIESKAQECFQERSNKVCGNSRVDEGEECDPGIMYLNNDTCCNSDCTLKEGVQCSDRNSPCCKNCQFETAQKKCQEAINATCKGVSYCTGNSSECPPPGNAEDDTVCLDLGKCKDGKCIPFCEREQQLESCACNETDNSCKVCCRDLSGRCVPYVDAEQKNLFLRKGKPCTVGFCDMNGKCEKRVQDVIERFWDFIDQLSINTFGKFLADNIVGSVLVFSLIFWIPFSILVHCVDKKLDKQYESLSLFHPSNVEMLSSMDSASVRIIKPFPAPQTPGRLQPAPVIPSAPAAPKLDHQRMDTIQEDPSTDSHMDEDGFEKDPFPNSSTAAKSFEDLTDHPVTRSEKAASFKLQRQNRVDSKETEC
# MEASUREMENT_NOTES: Residual enzyme activity of other metalloproteases
# Assay type: biochemical
# APPLIED_CONDITIONS: 10 μM inhibitor; read-out: Residual enzyme activity ADAM17
Threshold check on remaining activity at 10 µM: strictly below 80% is satisfied; on or above 80% is not satisfied.

INSERT INTO results (structure, target_under_test, label) VALUES
  ('O=C(Cc1c(-c2ccc3c(c2)OCO3)n[nH]c1-c1ccc2c(c1)OCO2)NO', 'hADAM 17 (Homo sapiens, UniProt P78536)', 'satisfied'),
  ('O=C(Cc1c(-c2ccccc2)nn(Cc2ccc(C(=O)O)cc2)c1-c1ccccc1)NO', 'hADAM 17 (Homo sapiens, UniProt P78536)', 'satisfied'),
  ('O=C(Cc1c(-c2ccccc2)nn(Cc2cccc(C(=O)O)c2)c1-c1ccccc1)NO', 'hADAM 17 (Homo sapiens, UniProt P78536)', 'not satisfied'),
  ('COc1cccc(-c2n[nH]c(-c3ccccc3)c2CC(=O)NO)c1', 'hADAM 17 (Homo sapiens, UniProt P78536)', 'satisfied'),
  ('COc1ccc(-c2n[nH]c(-c3ccccc3)c2CC(=O)NO)cc1OC', 'hADAM 17 (Homo sapiens, UniProt P78536)', 'satisfied'),
  ('O=C(Cn1c(-c2ccccc2)nnc1-c1ccccc1)NO', 'hADAM 17 (Homo sapiens, UniProt P78536)', 'not satisfied'),
  ('O=C(Cc1c(-c2ccccc2)noc1-c1ccccc1)NO', 'hADAM 17 (Homo sapiens, UniProt P78536)', 'satisfied'),
  ('O=C(CCc1c(-c2ccccc2)n[nH]c1-c1ccccc1)NO', 'hADAM 17 (Homo sapiens, UniProt P78536)', 'satisfied');
